test system: M14 melanoma; assay: NCI tumour cell line growth inhibition, 48 h
MEASURED_QUANTITY: TGI

1) CC[C@]12C=CCN3CC[C@@]4(c5cc(Br)c(OC)c([N+](=O)[O-])c5N(C)[C@H]4[C@@](O)(C(=O)OC)[C@@H]1OC(C)=O)[C@@H]32	> 100 µM

Field TGI (system: M14 melanoma) for entry COc1cccc(Nc2nc(C)c([N+](=O)[O-])c(Nc3cccc(OC)c3)n2)c1 = > 100 µM

TGI value, target or system M14 melanoma, for Cc1cc(C)c(C(=O)CC(=O)c2cccnc2)c(C)c1 : 33.9 µM

Entry CC(=O)O[C@H]1C(=O)[C@@]2(C)[C@H]([C@H](OC(=O)c3ccccc3)[C@]3(O)C[C@H](OC(=O)[C@H](O)[C@@H](NC(=O)c4ccc(N)cc4)c4ccccc4)C(C)=C1C3(C)C)[C@]1(OC(C)=O)CO[C@@H]1C[C@@H]2O under M14 melanoma had TGI of > 50 µM

Query O=C1c2ccccc2-c2c1c1ccccc1c(=O)n2Cc1ccccc1 on M14 melanoma; TGI returned: > 100 µM

---

test system: MDA-MB-231 breast; experiment: NCI tumour cell line growth inhibition, 48 h
MEASURED_QUANTITY: TGI

Lookup result for O=C(Nc1ccc(Cl)cc1)c1cc(-c2ccc(F)cc2)c2sc(=O)[nH]c2n1 ; measured TGI: 4.78 µM

---

tested on: OVCAR-4 ovarian; experiment: NCI tumour cell line growth inhibition, 48 h
Recorded TGI by entry

Use these answered entries as a reference point.
1. COc1nn(Cc2ccccn2)c2ccc([N+](=O)[O-])cc12	> 100 µM
2. COc1ccc2c(c1)C(=O)c1c-2n(CCCn2ccnc2)c(=O)c2ccccc12	> 100 µM

// COc1cc(OC(=O)c2c(O)cc(O)c(O)c2C)cc(C)c1C(=O)Oc1cc(C)c(C(=O)O)c(O)c1 : TGI value = > 100 µM

TGI reported for this compound Cc1c(N=Nc2ccccc2)c(-c2ccccc2)n(C2OC(CO)C(O)C(O)C2O)c(=S)c1C#N (centres undefined) : 26.1 µM

The recorded TGI for Cc1ccc(-c2c(C#N)c(-c3ccccc3)n(NS(=O)(=O)c3ccc(C)cc3)c(=O)c2C#N)cc1 is > 100 µM

// sample COc1cc(OC)c(/C=C/C(=O)c2c(OC)cccc2OC)c(OC)c1 , its TGI was > 100 µM

Per the record, COc1ccc(C(=O)COc2cccc(/C=C3\COc4ccc5ccccc5c4C3=O)c2)cc1 has TGI of > 100 µM

Lab note: measured TGI of CC(C)OC(=O)c1ccc(NCC2=CC(=O)C=CC2=O)cc1 was 26.2 µM

TGI measured on CN(C)CCCn1c2c(c3ccccc3c1=O)C(=O)c1ccccc1-2 = 48.9 µM

Please fill in: TGI reported for Cc1ccc2nc3c(C(=O)NCCN(C)C)cccc3nc2c1 = 15.2 µM

So, COc1cc2c(/C=C3/C(=O)Nc4ccc(O)cc43)c(Cl)n(Cc3ccccc3)c2cc1C ? Its TGI was > 100 µM

Short answer for CC1=CC[C@H](C[C@H](C#CCCCC2OCCO2)O[Si](C(C)C)(C(C)C)C(C)C)C(=O)CC1 : TGI was > 100 µM

// recorded TGI for Cc1nc2ccccc2c(=O)n1NC(=O)c1ccccn1 : > 100 µM

Item: Cc1ccccc1N(CCC#N)C1=NN(C(=O)CC(=O)Nc2ccccc2)C(c2ccccc2)C1 (centres undefined) | TGI: > 100 µM

The reported value for Cc1ccc(/C(=C/C=C(C#N)C#N)Sc2ccc(Cl)cc2)cc1 in terms of TGI is > 100 µM

Measured TGI, CCOC(=O)/C(C#N)=C/Nc1c(C)n(C)n(-c2ccccc2)c1=O : > 100 µM

---

tested on: BT-549 breast; experiment: NCI tumour cell line growth inhibition, 48 h
MEASURED_QUANTITY: TGI

Here is how some compounds turned out for TGI.
1. CN(C)CCNC(=O)c1cccc(C(=O)Nc2ccccc2)c1[N+](=O)[O-]	> 100 µM
2. Clc1nc(Cl)c2ncn(Cc3cccc(COc4cccc(OCc5cccc(Cn6cnc7c(Cl)nc(Cl)nc76)c5)c4)c3)c2n1	> 100 µM
3. COc1cc(C2C3=C(COC3=O)OC(C)(C)Oc3cc4c(cc32)OCO4)cc(OC)c1O (stereo not given)	> 100 µM
4. COC(=O)Nc1nc2ccc(Oc3ccc(NC(=O)Nc4ccccc4)cc3)cc2[nH]1	11.8 µM
5. O=S(=O)(O)CCSSCCS(=O)(=O)O	> 1000 µM
6. COc1cc(C(=O)NNC(=O)c2cc(Br)ccc2NC(=O)c2cccs2)cc(OC)c1OC	> 100 µM

# TGI measured on BT-549 breast for item CCN(CC)c1ccc(C(=N)c2ccc(N(CC)CC)cc2)cc1 = 5.78 µM

Short answer on BT-549 breast for Cc1cc(S(=O)(=O)Nc2nc(N)nc(N3N=CCC3C)n2)c(SCC(=O)O)cc1Cl (stereo not given) , TGI: > 10 µM

Form: item CC(=O)C(C(=O)c1ccc(C)cc1)[C@@H]1OC(C)(C)O[C@@H]1[C@H]1COC(C)(C)O1 (stereo not given in full) ; test system BT-549 breast; TGI: > 32.4 µM

Short answer on BT-549 breast for COc1ccc(CC2Cc3ccccc3CCN2)cc1OC (stereo not given) , TGI: > 50 µM

---

tested on: SW-620 colon; experiment: NCI tumour cell line growth inhibition, 48 h
MEASURED_QUANTITY: TGI

// returns TGI for COc1nn(Cc2ccccn2)c2ccc([N+](=O)[O-])cc12 with SW-620 colon; value = > 100 µM

Value sought: TGI, system SW-620 colon, item Cc1ccc2c(c1)C(=O)C1(C2)Cc2c(C)cccc2C1=O (stereo not drawn) . Result: > 100 µM

Response field TGI (SW-620 colon) for item COC(=O)c1ccccc1/C=C1\Cc2c(ccc3c2CCC3)C1=O : > 100 µM

Reported SW-620 colon TGI for item N.N.N.N.N.O=C([O-])c1nn[n-]n1.[Cl-].[Co+3] was > 100 µM

Record for O=C(CC(O)(C(F)(F)F)C(F)(F)F)C(c1ccccc1)C(O)(C(F)(F)F)C(F)(F)F (stereo not drawn) under target or system SW-620 colon: TGI reported as > 100 µM

With SW-620 colon as the test system, OCC1OC(NC(=S)NCCC(F)(F)C(F)(F)C(F)(F)C(F)(F)C(F)(F)C(F)(F)F)C(O)C(O)C1O (stereo not drawn) showed TGI of > 100 µM

CN(C)CCn1c(=O)c2ccc(NCCNCCO)c3c(=O)c4ccccc4n(c1=O)c23 tested on SW-620 colon gave TGI: > 30.7 µM

Reported TGI (SW-620 colon) for entry Cc1ccc(N(C(=O)CC(=O)NN)C(=O)c2ccccc2Cl)cc1 is > 100 µM

Fill in: SW-620 colon TGI for COc1cc(NC(=O)c2cc(O)c(CC=C(C)C)c(O)c2)cc2c1O[C@]1(C)CC[C@@H](O)C(C)(C)[C@H]1C2 = 13.8 µM

---

Collected TGI values appear next to each entry.
tested on: KM12 colon; assay: NCI tumour cell line growth inhibition, 48 h

1. O=S(=O)(O)CCSSCCS(=O)(=O)O	> 1000 µM
2. CC(=O)OC1=NN=C2COC(c3ccccc3OC(C)=O)=NN2C1	> 50 µM
3. CCN(CC)CCN1CC(O)=C(c2nc(-c3ccc(Cl)cc3)cs2)C1=N	8.09 µM
4. Cc1c(N=Nc2ccccc2)c(-c2ccccc2)n(C2OC(CO)C(O)C(O)C2O)c(=S)c1C#N (stereo not drawn)	11.6 µM

Noted for NC(CC(=O)OCc1ccccc1)C(=O)OCc1ccccc1 (stereo not drawn) : its TGI reads > 100 µM

CCCCCCCCCCCCCC1CCC(CC)N1 (stereo not drawn) yielded TGI of 32.4 µM

molecule C[N+](C)(C)CC1CCCC(C[N+](C)(C)C)C1=O (stereo not drawn) , TGI observed: 12.5 µM

The reported TGI of the molecule COc1ccc2c(c1)C(=O)c1c-2n(CCCn2ccnc2)c(=O)c2ccccc12 was 3.78 µM

---

# TGI per entry
system: SN12C renal; test: NCI tumour cell line growth inhibition, 48 h

1. COc1cc2c(/C=C3/C(=O)Nc4ccc(O)cc43)c(Cl)n(Cc3ccccc3)c2cc1C	> 45.3 µM
2. Cc1ccccc1N(CCC#N)C1=NN(C(=O)CC(=O)Nc2ccccc2)C(c2ccccc2)C1 (centres undefined)	> 100 µM
3. CCCN(CCc1ccc(-c2ccccc2)cc1)CCc1ccc2n[nH]nc2c1	27.4 µM

Cc1ccc2nc3c(C(=O)NCCN(C)C)cccc3nc2c1 has a reported TGI of 27.9 µM

// TGI lookup, molecule = O=C1c2ccccc2-c2c1c1ccccc1c(=O)n2Cc1ccccc1 , result: > 100 µM

Sample Cc1c(N=Nc2ccccc2)c(-c2ccccc2)n(C2OC(CO)C(O)C(O)C2O)c(=S)c1C#N (centres undefined) ; TGI observed: 28.5 µM

Recorded result, O=C(/C=C/c1cccc([N+](=O)[O-])c1)N1CCN(CCOC(c2ccccc2)c2ccccc2)CC1 , TGI: > 100 µM

Kindly note the recorded TGI for N=C1C(=N)c2ccccc2-c2ccccc21.[Cl-].[Ru+2].c1cnc2c(c1)ccc1cccnc12.c1cnc2c(c1)ccc1cccnc12 , which is > 100 µM

molecule COc1ccc(C2C(C(=O)O)=C(CO)Oc3cc4c(cc32)OCO4)cc1 (centres undefined) , TGI observed: > 100 µM

Per the record, CC(=O)[CH-]C(=O)c1ccccc1.CC(=O)[CH-]C(=O)c1ccccc1.O=C([O-])c1ccc([O-])cc1.O=C([O-])c1ccc([O-])cc1.[Ti+4] has TGI of > 100 µM

Field TGI (entry CC(NC(=O)OCc1ccccc1)NC(=O)OC(C)(C)C (centres undefined) ) reads > 100 µM

Memo: N=c1c2ccccc2nc2oc3cc([N+](=O)[O-])ccc3n12 , reported TGI: > 100 µM

Summary for this molecule, CC(=O)OC1CC(O)C23COC(O)C1(C)C2CC(O)C1(C)C3C(=O)C(O)C2(C)C(c3ccoc3)CC3OC321 (centres undefined) : TGI is > 100 µM

get_value(item= COc1cc(C2=NN(C(C)=O)C(c3ccc(OC(C)=O)cc3OC(C)=O)O2)c(OC(C)=O)c2ccccc12 (centres undefined) , readout=TGI) returns > 43.8 µM

Consider COc1ccc2c(c1)C=C([N+](=O)[O-])C(C1OC(C)(C)OC1C1COC(C)(C)O1)O2 (centres undefined) . Its measured TGI is 19.7 µM

Reported TGI of NC(=S)N/N=C/c1ccc(OC(=O)COc2ccc(Cl)cc2)cn1 : > 100 µM

TGI measured on CC(C)OC(=O)c1ccc(NCC2=CC(=O)C=CC2=O)cc1 = 26.1 µM

For record COc1nn(Cc2ccccn2)c2ccc([N+](=O)[O-])cc12 the listed TGI is > 100 µM

Entry Nc1ncc(-c2cnn(CCO)c2)c2scc(-c3ccc(NC(=O)Nc4cccc(F)c4)cc3)c12 — recorded TGI = 6.59 µM

This collection of values is drawn from PubChem BioAssay (NCI).
